System: Nilaparvata lugens
Test: Insecticidal activities to plant hopper, spraying method
Format: in vivo
Conditions: in vivo
experimentalEndpoint: Nilaparvata lugens Mortality (%) 500 ppm

[[record]]
compound = "CC[N+]1=C(C(=Cc2ccsc2)[N+](=O)[O-])N(Cc2ccc(Cl)nc2)CC1.[Cl-] [Compound 292]"
experimentalendpoint = "Nilaparvata lugens Mortality (%) 500 ppm"
reportedmeasurement = 100

[[record]]
compound = "CCN(Cc1ccc(Cl)nc1)C(=NC)C(=C(C)c1ccc(Cl)o1)[N+](=O)[O-] [Compound 198]"
experimentalendpoint = "Nilaparvata lugens Mortality (%) 500 ppm"
reportedmeasurement = 100

[[record]]
compound = "CCc1ccc(C=C(C2=NCCN2Cc2ccc(Cl)nc2)[N+](=O)[O-])s1 [Compound 29]"
experimentalendpoint = "Nilaparvata lugens Mortality (%) 500 ppm"
reportedmeasurement = 100

[[record]]
compound = "C[N+]1=C(C(=Cc2ccc(Cl)o2)[N+](=O)[O-])N(Cc2ccc(Cl)nc2)CC1.[Cl-] [Compound 247]"
experimentalendpoint = "Nilaparvata lugens Mortality (%) 500 ppm"
reportedmeasurement = 100

[[record]]
compound = "Cc1ccc(C=C(C2=NCCN2Cc2ccc(Cl)nc2)[N+](=O)[O-])o1 [Compound 12]"
experimentalendpoint = "Nilaparvata lugens Mortality (%) 500 ppm"
reportedmeasurement = 100

[[record]]
compound = "CCN=C(C(=Cc1ccc(Cl)o1)[N+](=O)[O-])N(C)Cc1ccc(Cl)nc1 [Compound 173]"
experimentalendpoint = "Nilaparvata lugens Mortality (%) 500 ppm"
reportedmeasurement = 85

[[record]]
compound = "CCN(C(=NC)C(=Cc1ccco1)[N+](=O)[O-])C(C)c1ccc(Cl)nc1 (centres unmarked) [Compound 205]"
experimentalendpoint = "Nilaparvata lugens Mortality (%) 500 ppm"
reportedmeasurement = 87

[[record]]
compound = "N#CC(=Cc1ccc(CO)o1)C1=NCCN1Cc1ccc(Cl)nc1 [Compound 145]"
experimentalendpoint = "Nilaparvata lugens Mortality (%) 500 ppm"
reportedmeasurement = 100


###

Test system: Plutella xylostella
Experiment: Insecticidal activities to diamondback moth, feeding dipped leaves
Assay type: in vivo
Conditions: in vivo
experimentalEndpoint: Plutella xylostella Mortality (%) 500 ppm

[[record]]
compound = "C[N+]1=C(C(=Cc2ccc(Cl)s2)[N+](=O)[O-])N(Cc2cnc(Cl)s2)CC1.[Cl-]"
reportedmeasurement = 100

[[record]]
compound = "C[N+]1=C(C(=Cc2cc(Cl)c(Cl)o2)[N+](=O)[O-])N(Cc2ccc(Cl)nc2)CC1.[Cl-]"
reportedmeasurement = 100

[[record]]
compound = "O=[N+]([O-])C(=Cc1cc(Br)c(Br)o1)C1=NCCN1Cc1cnc(Cl)s1"
reportedmeasurement = 100

[[record]]
compound = "CC(c1ccc(Cl)nc1)N1CCN=C1C(=Cc1ccco1)[N+](=O)[O-] (racemic)"
reportedmeasurement = 56

[[record]]
compound = "O=[N+]([O-])C(=Cc1ccccc1)C1=NCCN1Cc1ccc(Cl)nc1"
reportedmeasurement = 100

[[record]]
compound = "CC(c1ccc(Cl)nc1)N1CCN=C1C(=Cc1ccoc1)[N+](=O)[O-] (racemic)"
reportedmeasurement = 100

[[record]]
compound = "O=[N+]([O-])C(=Cc1cc(Cl)c(Cl)o1)C1=NCCN1CC1CCOC1 (centres unmarked)"
reportedmeasurement = 77

[[record]]
compound = "Cc1ccc(C=C(C2=NCCN2Cc2cnc(Cl)s2)[N+](=O)[O-])o1"
reportedmeasurement = 100

[[record]]
compound = "O=[N+]([O-])C(=Cc1ccc([N+](=O)[O-])s1)C1=NCCN1Cc1cnc(Cl)s1"
reportedmeasurement = 100

[[record]]
compound = "O=[N+]([O-])C(=Cc1cc(Br)co1)C1=NCCCN1Cc1ccc(Cl)nc1"
reportedmeasurement = 100

[[record]]
compound = "O=[N+]([O-])C(=Cc1cc(Br)cs1)C1=NCCN1Cc1ccc(Cl)nc1"
reportedmeasurement = 100

[[record]]
compound = "CC(=C(C1=NCCN1Cc1ccc(Cl)nc1)[N+](=O)[O-])c1ccc([N+](=O)[O-])o1"
reportedmeasurement = 100

[[record]]
compound = "O=[N+]([O-])C(=Cc1ccc([N+](=O)[O-])s1)C1=NCCCN1Cc1ccc(Cl)nc1"
reportedmeasurement = 100

[[record]]
compound = "CCc1ccc(C=C(C2=NCCCN2Cc2ccc(Cl)nc2)[N+](=O)[O-])o1"
reportedmeasurement = 100

[[record]]
compound = "O=[N+]([O-])C(=Cc1cc2ccccc2[nH]1)C1=NCCN1Cc1ccc(Cl)nc1"
reportedmeasurement = 100

[[record]]
compound = "O=[N+]([O-])C(=Cc1ccccc1O)C1=NCCN1Cc1ccc(Cl)nc1"
reportedmeasurement = 23

[[record]]
compound = "N#CC(=Cc1cccs1)C1=NCCN1Cc1ccc(Cl)nc1"
reportedmeasurement = 100

[[record]]
compound = "C[N+]1=C(C(=Cc2cc(Cl)co2)[N+](=O)[O-])N(Cc2ccc(Cl)nc2)CC1.[Cl-]"
reportedmeasurement = 100

[[record]]
compound = "C[N+]1=C(C(=Cc2ccco2)[N+](=O)[O-])N(Cc2ccc(Cl)nc2)CC1.[Cl-]"
reportedmeasurement = 100

[[record]]
compound = "O=[N+]([O-])C(=Cc1ccoc1)C1=NCCCN1Cc1ccc(Cl)nc1"
reportedmeasurement = 100

[[record]]
compound = "N#CC(=Cc1oc(Cl)cc1Cl)C1=NCCN1Cc1ccc(Cl)nc1"
reportedmeasurement = 85

[[record]]
compound = "CCc1ccc(C=C(C2=NCCN2Cc2cnc(Cl)s2)[N+](=O)[O-])o1"
reportedmeasurement = 100

[[record]]
compound = "O=[N+]([O-])C(=Cc1ccc(Br)o1)C1=NCCCN1Cc1ccc(Cl)nc1"
reportedmeasurement = 100

[[record]]
compound = "CC[N+]1=C(C(=Cc2ccc([N+](=O)[O-])s2)[N+](=O)[O-])N(Cc2ccc(Cl)nc2)CC1.[Cl-]"
reportedmeasurement = 100

[[record]]
compound = "O=[N+]([O-])C(=Cc1cccs1)C1=NCCN1Cc1cnc(Cl)s1"
reportedmeasurement = 100

[[record]]
compound = "C[N+]1=C(C(=Cc2ccc(Cl)o2)[N+](=O)[O-])N(Cc2cnc(Cl)s2)CC1.[Cl-]"
reportedmeasurement = 100

[[record]]
compound = "O=[N+]([O-])C(=Cc1cc(Br)c(Br)o1)C1=NCCCN1Cc1ccc(Cl)nc1"
reportedmeasurement = 100

[[record]]
compound = "O=[N+]([O-])C(=Cc1ccc(Cl)o1)C1=NCCN1Cc1ccc(Cl)nc1"
reportedmeasurement = 100

[[record]]
compound = "CC(=C(C1=NCCN1C(C)c1ccc(Cl)nc1)[N+](=O)[O-])c1ccc([N+](=O)[O-])o1 (racemic)"
reportedmeasurement = 56

[[record]]
compound = "O=[N+]([O-])C(=Cc1cc(Cl)c(Cl)o1)C1=NCCCN1Cc1ccc(Cl)nc1"
reportedmeasurement = 100

[[record]]
compound = "CCc1ccc(C=C(C2=[N+](C)CCN2Cc2ccc(Cl)nc2)[N+](=O)[O-])s1.[Cl-]"
reportedmeasurement = 100

[[record]]
compound = "CC(c1ccc(Cl)nc1)N1CCN=C1C(=Cc1ccc[nH]1)[N+](=O)[O-] (racemic)"
reportedmeasurement = 63


The measurements presented in this section are drawn from patent US8232407B2.
